# Method: In vivo pharmacokinetic assays in rats (intragastric and intravenous), plasma Compound 14 by LC-MS/MS
# Set-up: species or system SD rats
# Condition Summary: male, SD, rat, in vivo, iv, 5 mg/kg, rats, 5 mg/kg Compound 14 intravenous injection; individual animals No. 19-21; read-out: MRT
Outcome Measure: MRT (min)
The reply should be a number in min, with the unit left off.

## Task Record request: MRT value, item CN1CC(c2ccc(-c3ccc4c(c3)OC[C@H]3[C@H](CO)OC(=O)N43)cn2)OC1=O (stereo partly shown)
## Result 36.6

----------
# Method: In vivo pharmacokinetic assays in rats (intragastric and intravenous), plasma Compound 14 by LC-MS/MS
# Design: species or system SD rats
# Condition Summary: male, SD, rat, in vivo, po, 15 mg/kg, 15 mg/kg Compound 14 intragastric, individual animals No. 15-18
Outcome Measure: AUC(0-inf) (ng·h/mL)
The reply should be a number in ng·h/mL, with the unit left off.

## Task Record request: AUC(0-inf) value, item CN1CC(c2ccc(-c3ccc4c(c3)OC[C@H]3[C@H](CO)OC(=O)N43)cn2)OC1=O (stereo partly shown) [Compound 14]
## Result 1770

----------
# Method: In vivo pharmacokinetic assays in rats (intragastric and intravenous), plasma Compound 14 by LC-MS/MS
# Set-up: species or system SD rats
# Condition Summary: male, SD, rat, in vivo, po, 15 mg/kg, rats, 15 mg/kg Compound 14 intragastric; average value; read-out: MRT
Outcome Measure: MRT (h)
The reply should be a number in h, with the unit left off.

## Task Record request: MRT value, item CN1CC(c2ccc(-c3ccc4c(c3)OC[C@H]3[C@H](CO)OC(=O)N43)cn2)OC1=O (stereo partly shown)
## Result 2.64

----------
# Method: In vivo pharmacokinetic assays in rats (intragastric and intravenous), plasma Compound 14 by LC-MS/MS
# Design: species or system SD rats
# Condition Summary: male, SD, rat, in vivo, po, 15 mg/kg, rats, 15 mg/kg Compound 14 intragastric; average value
Outcome Measure: AUC(0-inf) (ng·h/mL)
The reply should be a number in ng·h/mL, with the unit left off.

## Task Record request: AUC(0-inf) value, item CN1CC(c2ccc(-c3ccc4c(c3)OC[C@H]3[C@H](CO)OC(=O)N43)cn2)OC1=O (stereo partly shown)
## Result 2170

----------
Listed here are compounds together with their documented MIC.
# Tested on: Staphylococcus aureus sensitive strains (5 strains)
# Method: In vitro antibacterial activity, MIC by agar double dilution method
# Type: cell-based
# Condition Summary: clinical isolates

CC(C)N1CC(c2ccc(-c3ccc4c(c3)OC[C@H]3[C@H](CO)OC(=O)N43)cn2)OC1=O (stereo partly drawn) = 1 to 2 µg/mL
CN1CCC[C@H]2CN(c3ccc(-c4ccc5c(c4)OC[C@H]4[C@H](CO)OC(=O)N54)cn3)C[C@H]21 = 8 µg/mL
Cn1nnc(-c2ccc(-c3ccc4c(c3)OC[C@H]3[C@H](CO)OC(=O)N43)cn2)n1 = 1 to 4 µg/mL
Cc1cc(C#N)ncc1-c1ccc2c(c1)OC[C@H]1[C@H](CO)OC(=O)N21 = 0.25 to 0.5 µg/mL
O=C1O[C@@H](CO)[C@@H]2COc3cc(-c4ccc(C(O)CO)nc4)ccc3N12 (stereo partly drawn) = 0.5 to 1 µg/mL

## Task Record request: MIC value, item CN1CCN(c2ccc(-c3ccc4c(c3)OC[C@H]3[C@H](CO)OC(=O)N43)cn2)CC1
## Result 2 to 4 µg/mL

----------
# Method: In vivo pharmacokinetic assays in rats (intragastric and intravenous), plasma Compound 14 by LC-MS/MS
# Set-up: species or system SD rats
# Condition Summary: male, SD, rat, in vivo, iv, 5 mg/kg, rats, 5 mg/kg Compound 14 intravenous injection; individual animals No. 19-21; read-out: Vss
Outcome Measure: Vd (L/kg)
The reply should be a number in L/kg, with the unit left off.

## Task Record request: Vd value, item CN1CC(c2ccc(-c3ccc4c(c3)OC[C@H]3[C@H](CO)OC(=O)N43)cn2)OC1=O (stereo partly shown)
## Result 1.9

----------
Listed here are compounds together with their documented MIC.
# System: LRSA, linezolid-resistant strain of Staphylococcus aureus (3 strains)
# Method: In vitro antibacterial activity on linezolid-resistant strains, MIC in MHB broth, 96-well plate
# Format: cell-based
# Condition Summary: LRSA (3 strains)

Sample answers from the record:
C[C@@H](O)C(O)c1ccc(-c2ccc3c(c2)OC[C@H]2[C@H](CO)OC(=O)N32)cn1 (stereo partly shown) = 4 µg/mL
C[C@@H](O)C(=O)c1ccc(-c2ccc3c(c2)OC[C@H]2[C@H](CO)OC(=O)N32)cn1 = 8 µg/mL
N#Cc1ccc(-c2ccc3c(c2)OC[C@H]2[C@H](COC(=O)CCC(=O)O)OC(=O)N32)cn1 = 8 µg/mL

## Task Record request: MIC value, item CC(=O)NC[C@H]1CN(c2ccc(N3CCOCC3)c(F)c2)C(=O)O1 [LZ, linezolid, reference compound]
## Result > 32 µg/mL

## Task Record request: MIC value, item O=C1OCCN1c1ccc(-c2ccc3c(c2)OC[C@H]2[C@H](CO)OC(=O)N32)cn1
## Result 4 µg/mL

## Task Record request: MIC value, item O=C1O[C@@H](CO)[C@@H]2COc3cc(-c4ccc(Cn5cncn5)nc4)ccc3N12
## Result 8 µg/mL

## Task Record request: MIC value, item N#Cc1ccc(-c2ccc3c(c2)OC[C@H]2[C@H](CO)OC(=O)N32)cn1
## Result 4 to 8 µg/mL

----------
# Tested on: Staphylococcus epidermidis sensitive strains (5 strains)
# Method: In vitro antibacterial activity, MIC by agar double dilution method
# Format: cell-based
# Condition Summary: clinical isolates
Listed here are compounds together with their documented MIC.

Sample answers from the record:
O=C1CNCCN1c1ccc(-c2ccc3c(c2)OC[C@H]2[C@H](CO)OC(=O)N32)cn1 = 2 to 4 µg/mL
O=C1O[C@@H](CO)[C@@H]2COc3cc(-c4ccc(C(O)CO)nc4)ccc3N12 (stereo partly drawn) = 0.5 µg/mL

## Task Record request: MIC value, item O=C1O[C@H](CO)CN1c1ccc(-c2ccc3c(c2)OC[C@H]2[C@H](CO)OC(=O)N32)cn1
## Result 0.5 to 1 µg/mL

----------
# Method: In vivo pharmacokinetic assays in rats (intragastric and intravenous), plasma Compound 14 by LC-MS/MS
# Design: species or system SD rats
# Condition Summary: male, SD, rat, in vivo, po, 15 mg/kg, rats, 15 mg/kg Compound 14 intragastric; individual animals No. 15-18; read-out: AUC0-t
Outcome Measure: AUC0-t (ng·h/mL)
The reply should be a number in ng·h/mL, with the unit left off.

## Task Record request: AUC0-t value, item CN1CC(c2ccc(-c3ccc4c(c3)OC[C@H]3[C@H](CO)OC(=O)N43)cn2)OC1=O (stereo partly shown) [Compound 14]
## Result 1620

----------
# System: Streptococcus pneumoniae resistant strains (4 strains)
# Method: In vitro antibacterial activity, MIC by agar double dilution method
# Assay type: cell-based
# Condition Summary: clinical isolates
# Description: Experimental method: The agar double dilution method (Antimicrob. Agents and Chemother, 40, 1996, 720-726) was used to determine the minimum inhibitory concentration (MIC) of the series of compounds of the invention and the positive control drug linezolid for the test strains. The multipoint inoculation system (Denley A400) was employed to inoculate the bacteria on the agar plate surface with different concentrations of drugs; inoculation amount on each point was about 10^6 CFU/mL. […]
Outcome Measure: MIC

C[C@@H](O)C(O)c1ccc(-c2ccc3c(c2)OC[C@H]2[C@H](CO)OC(=O)N32)cn1 (stereo partly shown) = 2 to 4 µg/mL

## Task Record request: MIC value, item CN1C[C@@H](c2ccc(-c3ccc4c(c3)OC[C@H]3[C@H](CO)OC(=O)N43)cn2)OC1=O
## Result 0.25 to 0.5 µg/mL

## Task Record request: MIC value, item CN1CCN(c2ccc(-c3ccc4c(c3)OC[C@H]3[C@H](CO)OC(=O)N43)cn2)CC1
## Result 4 µg/mL

## Task Record request: MIC value, item O=C1OC(c2ccc(-c3ccc4c(c3)OC[C@H]3[C@H](CO)OC(=O)N43)cn2)CN1Cc1ccccc1 (stereo partly shown)
## Result 2 µg/mL

## Task Record request: MIC value, item CN1C[C@H](c2ccc(-c3ccc4c(c3)OC[C@H]3[C@H](CO)OC(=O)N43)cn2)OC1=O
## Result 2 µg/mL

## Task Record request: MIC value, item O=C1O[C@@H](CO)[C@@H]2COc3cc(-c4ccc(N5CCC(O)CC5)nc4)ccc3N12
## Result 2 to 8 µg/mL

## Task Record request: MIC value, item O=C1O[C@@H](CO)[C@@H]2COc3cc(-c4ccc(N5C[C@@H]6CCCN[C@@H]6C5)nc4)ccc3N12
## Result 8 to 16 µg/mL

## Task Record request: MIC value, item CC(O)c1ccc(-c2ccc3c(c2)OC[C@H]2[C@H](CO)OC(=O)N32)cn1 (stereo partly shown)
## Result 2 to 4 µg/mL

## Task Record request: MIC value, item NCc1ccc(-c2ccc3c(c2)OC[C@H]2[C@H](CO)OC(=O)N32)cn1
## Result 4 to 16 µg/mL

## Task Record request: MIC value, item CC(C)N1CC(c2ccc(-c3ccc4c(c3)OC[C@H]3[C@H](CO)OC(=O)N43)cn2)OC1=O (stereo partly shown)
## Result 2 µg/mL

## Task Record request: MIC value, item O=C1O[C@@H](CO)[C@@H]2COc3cc(-c4ccc(CO)nc4)ccc3N12
## Result 2 to 4 µg/mL

## Task Record request: MIC value, item NC1(c2ccc(-c3ccc4c(c3)OC[C@H]3[C@H](CO)OC(=O)N43)cn2)CC1
## Result 1 to 2 µg/mL

## Task Record request: MIC value, item CN1CC(c2ccc(-c3ccc4c(c3)OC[C@H]3[C@H](CO)OC(=O)N43)cn2)OC1=O (stereo partly shown)
## Result 1 µg/mL

## Task Record request: MIC value, item CC(C)(O)c1ccc(-c2ccc3c(c2)OC[C@H]2[C@H](CO)OC(=O)N32)cn1
## Result 2 to 4 µg/mL

## Task Record request: MIC value, item Cc1cc(C#N)ncc1-c1ccc2c(c1)OC[C@H]1[C@H](CO)OC(=O)N21
## Result 1 to 2 µg/mL

## Task Record request: MIC value, item CN1CCC[C@H]2CN(c3ccc(-c4ccc5c(c4)OC[C@H]4[C@H](CO)OC(=O)N54)cn3)C[C@H]21
## Result 16 µg/mL
